# System: RARa homodimer (NR concentration 270 nM)
# ASSAY_DETAILS: PBM binding z-score (relative to random genomic background probes); higher = stronger binding; sequences stand for … in GC…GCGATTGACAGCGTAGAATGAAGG
Quick reference for PBM binding z-score among some sequences
PARAMETER: PBM binding z-score

CCTACTGGGCCAAACGTCATTGATTCCAATGCTC :: -0.153
CCTAACGGGTCAAGGTTATAGCACGGGTGGTACG :: 1.14
GCGACTGGGGCATTAGCAGGTTACCATAACTTAA :: -0.164
ATCTCTAGGTAACAAGTTCAGAGAAAGAGAGGAC :: 1.3
GCGACTGGGGCATCAGCAGGTTACCGTAACTTAA :: -0.334
AATACAGGGTCATCGTAGGCCAGCGTACGCACAG :: 0.478
CCTGACGGGTCAAGGTTATAGCACGGGTGGTACG :: 0.717
TCATATAGGTAAATAGGTGAAAGTCCGTAAGTTA :: 1.54
TCTACTAGGTCAACGATGGTCAGCTAATCTGCTA :: 1.28
CCTTACTGGTCACTCCAGGTTATAGCATCGGAGT :: 1.05
GCTGCTAGGTCAATTGATGGTCAGCTAAAGCTCG :: -0.705
TCATATAGGTAATACAGGTGGAAGTCGGCATCTA :: 1.5
CGAACGAGGGCATGAGATGATAGCAAATGCCGAT :: 0.183
TTACCAAGGTGATAGGTCGTTGATGCACGCCTTG :: -0.163
TCTCGTAGATCAACAGGAGGTTAAGAAAGATCGA :: 0.12
ATCTCTAGGTAACAGGTTCAGTGAAAGAGAGGAC :: 0.973
CCTCGGAGGAGAGAAGGTCAGAGCTGTCCGCTTT :: -0.103
CGTCAAAGTTCAACTTAGGTAACGTAAAGCACGC :: 2.1
CCTACTGGGCCACGAAATGTCATTGATTCAGTGA :: -0.591
ATCTCTAGGTAACAAGTTCAGTGAAAGAGAGGAC :: 1.19
AGAATGAGGTTATCAAAGATCAGGGAAACGCTTG :: 0.154
GCAGACAGGTGAAACGCCGGTAACTCAGGGTGGC :: -1.03
ATATGTAGGTTACATCCGGGTCAATCAGGCTATG :: 0.955
CCTACTGGGCCAAGGTCATTGTTCAGTCAAAGCA :: -0.126
CCTTACGCGTCACTGACAGGTTATAGCATTTGGA :: 1.36
CAAACTAGGTCACCCGAAGGTCAAAGTCCGCATG :: 3.95

###

# Test system: PPARg:RXRa (NR concentration 180 nM, RXRa partner concentration 90 nM)
# ASSAY_DETAILS: PBM binding z-score (relative to random genomic background probes); higher = stronger binding; sequences stand for … in GC…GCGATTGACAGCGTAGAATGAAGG
Returns the class for an entry based on its PBM binding z-score. Class ranges: bin 0 (below 0.9), bin 1 (0.9 to below 4), bin 2 (4 or more)

CCGACTGGGGCAGAAAGGCTACCATACCATCCGG :: bin 0
AGTCAAAGTTCATCTAGGTAACGTGAGATATGCT :: bin 2
CGAACTAGGTCATCCAGCACAGTGAATACATTGA :: bin 2
GCTATTAGTTGAAAGGGCCACCGAATGATTCTCG :: bin 0
CAAACTAGGTCACCGGAAGGTCCAAGTCCGCATG :: bin 2
CGAACTAGGTCATCCAGGATAGTGAATACATTGA :: bin 2
TCTAGTTGGTCACCGAGGTCACACACGACGGGTA :: bin 1
TAAACAGGGTCAAAGGCCAGAGTACGAATGTCGA :: bin 2
TCTGCTAGTTCAGTTGGTCAGCTAACGAGCTGCC :: bin 0
ATCTCTCGGTAAGACTCAGTTCAGTGAAGAACGC :: bin 0
ATCTCGAGGTAAGACTCAGTTCAGTGAAGAACGC :: bin 0
CCTTACGGGTCACGAGGTTAAAGCACGACGAGCG :: bin 2
GCAGACAGGTGAAAAGCAGGTAACTCAGGGTGGC :: bin 0
ATATGTAGGTTAGCTGGGGTCATTCAAACTAGGC :: bin 2
CCTAGCAGGCCAATCTGGGTCACTCATGGCTTGA :: bin 1
CGAACTAGGTCACGAAAGGTCAAAGTCGAATGAC :: bin 2
GCTATCAGTTGAAAGGGCAACCGAATGATTCTCG :: bin 1
CCTACGGGGCCATTCAGAGGTCATTGATCATATG :: bin 1
ATCTCTAGGTAAAGTTCAGTTAAAGATCGATAGA :: bin 1
GCGGCTAGGTCAACTGATGGTCAGCTAAAGCTCG :: bin 1
TCAAGTAGGTTAGGGGCATTCAGAATGGCGTCGA :: bin 1
AGAATGAGGTTACCAAAGAACAGGGAAACGCTTG :: bin 1
AGAACGAGGGCACGTTGAGTTGATAGCAGAGTAG :: bin 1
TCTGCTAGGACAGTTGGTCAGCTAACGAGCTGCC :: bin 0
TTACCAGGGTGAGCTGAGGTCGTTGATCCAACTC :: bin 0

Data origin, for the record: the supplement of paper PMC6555819
